Reference source for all entries: patent US20210030857A1

measurementTarget: T1, human beta klotho expressed on cells (human, UniProt Q86Z14 1-1044)
T1 construct: also called HuKLB overexpressing cells; Human KLB
T1 sequence: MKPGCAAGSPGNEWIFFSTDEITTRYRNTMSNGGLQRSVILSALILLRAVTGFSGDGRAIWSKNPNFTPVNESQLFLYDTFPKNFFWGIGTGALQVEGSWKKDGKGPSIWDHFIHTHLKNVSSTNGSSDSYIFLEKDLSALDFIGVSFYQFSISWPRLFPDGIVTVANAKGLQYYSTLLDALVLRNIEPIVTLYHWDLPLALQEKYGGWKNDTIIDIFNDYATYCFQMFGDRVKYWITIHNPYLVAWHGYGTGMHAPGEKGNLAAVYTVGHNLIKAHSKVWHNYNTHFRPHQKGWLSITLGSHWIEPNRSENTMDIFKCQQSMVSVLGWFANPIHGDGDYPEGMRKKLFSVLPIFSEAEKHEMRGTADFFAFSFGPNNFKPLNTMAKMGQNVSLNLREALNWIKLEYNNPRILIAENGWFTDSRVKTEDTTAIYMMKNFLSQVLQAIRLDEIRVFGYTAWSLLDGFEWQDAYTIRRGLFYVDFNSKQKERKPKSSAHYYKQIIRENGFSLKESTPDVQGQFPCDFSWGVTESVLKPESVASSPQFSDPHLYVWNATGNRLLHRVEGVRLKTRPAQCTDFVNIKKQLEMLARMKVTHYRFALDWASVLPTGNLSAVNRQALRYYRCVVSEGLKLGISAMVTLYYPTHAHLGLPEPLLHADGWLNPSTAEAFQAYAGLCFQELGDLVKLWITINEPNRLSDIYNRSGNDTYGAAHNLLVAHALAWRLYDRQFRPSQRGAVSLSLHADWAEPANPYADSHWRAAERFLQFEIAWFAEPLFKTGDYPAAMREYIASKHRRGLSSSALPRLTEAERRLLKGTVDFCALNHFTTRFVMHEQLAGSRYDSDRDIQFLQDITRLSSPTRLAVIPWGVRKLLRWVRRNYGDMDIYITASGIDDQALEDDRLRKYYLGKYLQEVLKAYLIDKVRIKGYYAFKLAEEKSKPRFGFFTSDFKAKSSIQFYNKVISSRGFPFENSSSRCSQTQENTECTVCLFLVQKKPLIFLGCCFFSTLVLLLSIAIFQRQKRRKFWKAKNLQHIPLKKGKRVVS
assayDetails: FACS competition on HuKLB-overexpressing cells; row antibody unlabelled; competitor 5H23-Alexa647 (labelled, EC10); MFI of the label
experimentalReadout: Mean Florescence Intensity (MFI)
Respond numerically; units are MFI and should not be typed.

binder | unitsText | readoutNumber
antibody 4P5 (antibody, V domains shown, Murine monoclonal antibody) VH: QVQLQQSGPELVKPGALVKISCKASGYTFTRYDINWVKKRPGQGLEWIGWIYPGDDSTKYNEKFKGKATLTADKSSSTAYMQLSSLTSENSAVYFCARSDYYGSRSFVYWGQGTLVTVSA VL: DILLTQSPASLAVSLGQRATISCRASKSVSTSGYSYMHWYQQKPGQPPKLLIYLASNLESGVPARFSGRGSGTDFTLNIHPVEEEDAATYYCHHSGELPYTFGGGTKLEIK | MFI | 2.4
antibody 1C17 (antibody, V domains shown, Murine monoclonal antibody) VH: QVQLQESGPGLVKPSQSLSLTCSVTGYSITSGYYWNWIRQFPGNKLEWMGYINYDGNSNYTPSLKNRISITRDTSKNQFFLKLNSVTPEDTATYYCARKGAYYSNYDSFDVWGTGTTVTVSS VL: DIKMTQSPSSMYASLGERVTITCKASQDINSYLSWVQQKPGKSPKTLIYRANRLVDGVPSRFSGSGSGQDYSLTISSLEYEDMGIYYCLQYDEFPFTFGSGTKLEIK | MFI | 2.4
antibody 5C23 (antibody, V domains shown, Murine monoclonal antibody) VH: QVQPQESGPELVKPGALVKISCKASGYTFTRYDINWVKKRPGQGLEWIGWIYPGDGSTKYNEKFEGKATLTADKSSSTAYMQLSSLTSENSAVYFCARSDYYGSRSFVYWGQGTLVTVSA VL: DIVLTQSPDSLTVSLGQRATISCRASKSVSTSGYSYMHWYQQKPGQPPKLLIYLASNLESGVPARFSGSGSGTDFTLNIHPVEEEDAATYYCQHSRELPYTFGGGTKLEIK | MFI | 2.4
antibody 5H23 (antibody, V domains shown, Murine monoclonal antibody from hybridoma; also called 5H23-Alexa647 (labelled form)) VH: QVQLQQSGPELVKPGALVKISCKASGYTFTSYDINWVKQRPGQGLEWIGWIYPGDGSTKYNEKFKGKATLTADKSSRTAYMQLSSLTSENSAVYFCARSDYYGSRSFAYWGQGTLVTVSA VL: DIVLTQSPASLAVSLGQRATISCRASKSVSTSGYVYMHWNQQKPGQPPKLLIYLASYLESGVPARFSGSGSGTDFTLNIHPVEEEDAAIYYCQHSRDLTFPFGGGTKLEIK | MFI | 2.3

Prompt: Given antibody 3N20 (antibody, V domains shown, Murine monoclonal antibody) VH: QVQLQESGAELARPGASVKLSCKVSGYIFTNYGISWVKQRTGQGLEWIGEIYPRSGNTYYNEKFKGKATLTADMSSSTAYMDLRSLTSEDSAVYFCARHWDGVLDYFDYWGQGTSLTVSS VL: DIVMTQSPSSLSVSAGEKVTMSCKSSQSLLNSGNQKNYLAWYQQKPGQPPKLLIYGASTRESGVPDRFTGSGSGTDFTLTISSVQAEDLAVYYCLNDHSYPFTFGAGTKLELK , respond with its Mean Florescence Intensity (MFI).
Response: 2.4
